Source listed as patent US12084472B2.

experimental_system: human TGR5 (Homo sapiens)
Construct: expressed in transfected cells; host or cells: HEK293
assay: Cell-based TGR5 assay (cAMP generation, HTRF)
test_parameters: HEK293 cells stably transfected with human TGR5; cAMP by HTRF; 30 minutes at 37° C.; read-out: pEC50 Human TGR5 (converted)
Listed here: items and their measured EC50.

structure_as_smiles	EC50
O=C(CCN1CCN(S(=O)(=O)c2ccc(Cl)c(COC3(c4cnccc4-c4ccccc4OC4CC4)CC3)c2)CC1)NC[C@H](O)[C@@H](O)[C@H](O)[C@H](O)CO	126 to 1000 nM

// lookup EC50 for "CC(C)N(CCCCNC(=O)N[C@@H](CO)[C@@H](O)[C@H](O)[C@H](O)CO)S(=O)(=O)c1ccc(Cl)c(COC2(c3cnccc3-c3ccccc3OC3CC3)CCC2)c1"
< 100 nM

// lookup EC50 for "Cc1cc(COC2(c3cnccc3-c3ccccc3OC3CC3)CC2)c(Cl)cc1CCCCC(=O)N(C)C[C@H](O)[C@@H](O)[C@H](O)[C@H](O)CO"
< 100 nM

###

experimental_system: human TGR5 (Homo sapiens)
Construct: expressed in transfected cells; host or cells: HEK293
assay: Cell-based TGR5 assay (cAMP generation, HTRF)
test_parameters: HEK293 cells stably transfected with human TGR5; cAMP by HTRF; 30 minutes at 37° C.; read-out: pEC50 Human TGR5 (converted)
readout_type: EC50

Answered examples (2):
molecule	EC50
CCOC(=O)NCCN(CCCSc1ccc(Cl)c(COC2(c3cnccc3-c3ccccc3OC3CC3)CC2)c1)C(=O)[C@@H](O)[C@@H](O)[C@H](O)[C@@H](O)CO [Compound I-597]	126 to 1000 nM
O=C(NCCC1CCN(S(=O)(=O)c2ccc(Cl)c(COC3(c4cnccc4-c4ccccc4OC4CC4)CC3)c2)CC1)[C@@H](O)[C@@H](O)[C@H](O)[C@@H](O)CO [Compound I-462]	< 100 nM

// lookup EC50 for O=C(CCCCc1cc(Cl)c(COC2(c3cnccc3-c3ccccc3OC3CC3)CC2)cc1Cl)N(Cc1ccccc1)C[C@@H](O)[C@H](O)[C@H](O)[C@H](O)CO [Compound I-120]
126 to 1000 nM

###

Listed here: items and their measured EC50.
experimental_system: human TGR5 (Homo sapiens, UniProt Q8TDU6)
Construct: expressed in transfected cells; host or cells: HEK293
assay: Cell-based TGR5 assay (cAMP generation, HTRF)
test_parameters: HEK293 cells stably transfected with human TGR5; cAMP by HTRF; 30 minutes at 37° C.; read-out: pEC50 Human TGR5 (converted)

Answered examples (3):
compound	EC50
O=C(CCCCc1cc(Cl)c(CNC2(c3cnccc3-c3ccccc3OC3CC3)CC2)cc1Cl)NC[C@H](O)[C@@H](O)[C@H](O)[C@H](O)CO	126 to 1000 nM
O=C(NCCCCc1cc(Cl)c(COC2(c3cnccc3-c3ccccc3OC3CC3)CC2)cc1Cl)[C@@H](O)[C@@H](O)[C@H](O)[C@@H](O)CN1CCOCC1 (stereo in doubt)	< 100 nM
Cc1ccc(SCCCN(CCS(C)(=O)=O)C[C@H](O)[C@@H](O)[C@H](O)[C@H](O)CO)cc1COC1(c2cnccc2-c2ccccc2OC2CC2)CC1	126 to 1000 nM

// lookup EC50 for CC(OCCc1cc(Cl)c(COC2(c3cnccc3-c3ccccc3OC3CC3)CC2)cc1Cl)C(=O)N(C)C[C@H](O)[C@@H](O)[C@H](O)[C@H](O)CO (some centres unmarked)
< 100 nM

// lookup EC50 for "O=C(COCC1CN(S(=O)(=O)c2ccc(Cl)c(COC3(c4cnccc4-c4ccccc4OC4CC4)CC3)c2)C1)NC[C@H](O)[C@@H](O)[C@H](O)[C@H](O)CO"
< 100 nM

// lookup EC50 for Cc1ccc(C(C)CCCCNC(=O)[C@@H](O)[C@@H](O)[C@H](O)[C@@H](O)CO)cc1CNC1(c2cnccc2-c2ccccc2OC2CC2)CC1 (some centres unmarked)
< 100 nM

// lookup EC50 for "O=C(NCCCCCS(=O)(=O)c1ccc(Cl)c(COC2(c3cnccc3-c3ccccc3OC3CC3)CC2)c1)N[C@@H](CO)[C@@H](O)[C@H](O)[C@H](O)CO"
< 100 nM

// lookup EC50 for COCCN(C[C@@H](O)[C@H](O)[C@@H](O)[C@@H](O)CO)C(=O)CCCC(C)c1ccc(Cl)c(CNC2(c3cnccc3-c3ccccc3OC3CC3)CC2)c1 (some centres unmarked)
< 100 nM

// lookup EC50 for "Cc1cc(COC2(c3cnccc3-c3ccccc3OC3CC3)CC2)c(Cl)cc1CCCCNC(=O)NC[C@@H]1O[C@H](CO)[C@@H](O)[C@H](O)[C@H]1O"
< 100 nM

// lookup EC50 for CC(CCCC(=O)N[C@@H](CO)[C@@H](O)[C@H](O)[C@H](O)CO)c1ccc(Cl)c(CNC2(c3cnccc3-c3ccccc3OC3CC3)CC2)c1 (some centres unmarked)
< 100 nM

// lookup EC50 for O=C(NCC(O)C(O)C(O)C(O)CO)N[C@@H](CCCNS(=O)(=O)c1ccc(Cl)c(COC2(c3cnccc3-c3ccccc3OC3CC3)CC2)c1)C(=O)O (some centres unmarked)
< 100 nM

###

Listed here: items and their measured EC50.
experimental_system: human TGR5 (Homo sapiens)
Construct: expressed in transfected cells; host or cells: HEK293
assay: Cell-based TGR5 assay (cAMP generation, HTRF)
test_parameters: HEK293 cells stably transfected with human TGR5; cAMP by HTRF; 30 minutes at 37° C.; read-out: pEC50 Human TGR5 (converted)

Answered examples (3):
compound	EC50
CC(C)(C)OCc1ccccc1-c1ccncc1C1(NCc2cc(Cl)ccc2Cl)CC1	126 to 1000 nM
CN(CCCCc1cc(Cl)c(COC2(c3cnccc3-c3ccccc3OC3CC3)CC2)cc1Cl)C(=O)[C@@H](O)[C@@H](O)[C@H](O)[C@@H](O)CO (stereo in doubt)	< 100 nM
NS(=O)(=O)CCN(CCCCc1cc(Cl)c(COC2(c3cnccc3-c3ccccc3OC3CC3)CC2)cc1Cl)C(=O)[C@H](O)[C@@H](O)[C@H](O)[C@H](O)CO	< 100 nM

human TGR5 (Homo sapiens) / EC50 / "CS(=O)(=O)CCN(CCCCCSc1ccc(Cl)c(COC2(c3cnccc3-c3ccccc3OC3CC3)CC2)c1)C(=O)[C@@H](O)[C@@H](O)[C@H](O)[C@@H](O)CO" : value?
< 100 nM

human TGR5 (Homo sapiens) / EC50 / "COC[C@H](O)CN(C[C@H](O)[C@@H](O)[C@H](O)[C@H](O)CO)C(=O)CCCCc1cc(Cl)c(COC2(c3cnccc3-c3ccccc3OC3CC3)CC2)cc1Cl" : value?
< 100 nM

###

experimental_system: human TGR5 (Homo sapiens, UniProt Q8TDU6)
Construct: expressed in transfected cells; host or cells: HEK293
Sequence (Q8TDU6 1-330): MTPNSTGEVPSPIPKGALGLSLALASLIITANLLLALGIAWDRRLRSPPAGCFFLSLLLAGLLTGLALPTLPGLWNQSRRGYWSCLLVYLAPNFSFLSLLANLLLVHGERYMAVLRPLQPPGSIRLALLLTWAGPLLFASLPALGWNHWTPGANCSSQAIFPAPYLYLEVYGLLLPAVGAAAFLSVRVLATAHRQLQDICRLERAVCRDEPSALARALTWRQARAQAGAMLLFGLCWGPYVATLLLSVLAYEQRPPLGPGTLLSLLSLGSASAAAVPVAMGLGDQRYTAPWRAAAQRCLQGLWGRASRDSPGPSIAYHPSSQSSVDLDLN
assay: Cell-based TGR5 assay (cAMP generation, HTRF)
test_parameters: HEK293 cells stably transfected with human TGR5; cAMP by HTRF; 30 minutes at 37° C.; read-out: pEC50 Human TGR5 (converted)
Listed here: items and their measured EC50.

human TGR5 (Homo sapiens, UniProt Q8TDU6) / EC50 / "CN(CCCSc1ccc(Cl)c(COC2(c3cnccc3-c3ccccc3OC3CC3)CC2)c1)C(=O)[C@@H](O)[C@@H](O)[C@H](O)[C@@H](O)CO" : value?
< 100 nM

###

experimental_system: human TGR5 (Homo sapiens)
Construct: expressed in transfected cells; host or cells: HEK293
Sequence (Q8TDU6 1-330): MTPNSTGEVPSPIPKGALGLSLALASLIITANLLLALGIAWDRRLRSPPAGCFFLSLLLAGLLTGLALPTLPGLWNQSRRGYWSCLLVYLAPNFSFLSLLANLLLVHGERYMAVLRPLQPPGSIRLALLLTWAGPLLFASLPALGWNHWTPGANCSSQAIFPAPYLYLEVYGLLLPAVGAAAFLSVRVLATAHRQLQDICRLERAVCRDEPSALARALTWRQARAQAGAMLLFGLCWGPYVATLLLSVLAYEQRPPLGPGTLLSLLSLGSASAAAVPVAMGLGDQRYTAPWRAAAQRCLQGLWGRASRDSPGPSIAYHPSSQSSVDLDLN
assay: Cell-based TGR5 assay (cAMP generation, HTRF)
test_parameters: HEK293 cells stably transfected with human TGR5; cAMP by HTRF; 30 minutes at 37° C.; read-out: pEC50 Human TGR5 (converted)
readout_type: EC50

molecule	observed_value
CC(CCCc1cc(Cl)c(COC2(c3cnccc3-c3ccccc3OC3CC3)CC2)cc1Cl)C(=O)N(C)C[C@H](O)[C@@H](O)[C@H](O)[C@H](O)CO (stereo partly drawn)	< 100 nM
CCOC(=O)NCCCN(CCCCSc1ccc(Cl)c(CNC2(c3cnccc3-c3ccccc3OC3CC3)CC2)c1)C(=O)[C@@H](O)[C@@H](O)[C@H](O)[C@@H](O)CO	< 100 nM

// below: EC50 requested for another molecule
// lookup EC50 for "O=C(NCCOCCS(=O)(=O)c1ccc(Cl)c(COC2(c3cnccc3-c3ccccc3OC3CC3)CC2)c1)NC[C@H](O)[C@@H](O)[C@H](O)[C@H](O)CO"
< 100 nM
